Assay conditions: in n-butanol, 313.15 K
Value type: solubility (mole fraction)

1. CNC(=O)c1cc(Oc2ccc(NC(=O)Nc3ccc(Cl)c(C(F)(F)F)c3)cc2)ccn1 = 0.00182

----------
Assay conditions: in toluene, 288.15 K
Value type: solubility (mole fraction)

1) CNC(=O)c1cc(Oc2ccc(NC(=O)Nc3ccc(Cl)c(C(F)(F)F)c3)cc2)ccn1 = 0.00255

----------
Assay conditions: in acetone, 273.15 K
Value type: solubility (mole fraction)

1. CNC(=O)c1cc(Oc2ccc(NC(=O)Nc3ccc(Cl)c(C(F)(F)F)c3)cc2)ccn1 = 0.00227

----------
Assay conditions: in ethanol, 293.15 K
Value type: solubility (mole fraction)

1) CNC(=O)c1cc(Oc2ccc(NC(=O)Nc3ccc(Cl)c(C(F)(F)F)c3)cc2)ccn1 = 0.00103

----------
Assay conditions: in ethyl acetate, 278.15 K
Value type: solubility (mole fraction)

1) CNC(=O)c1cc(Oc2ccc(NC(=O)Nc3ccc(Cl)c(C(F)(F)F)c3)cc2)ccn1 = 0.001

----------
Assay conditions: in n-butanol, 278.15 K
Value type: solubility (mole fraction)

1) CNC(=O)c1cc(Oc2ccc(NC(=O)Nc3ccc(Cl)c(C(F)(F)F)c3)cc2)ccn1 = 0.000817

----------
Assay conditions: in isobutanol, 303.15 K
Value type: solubility (mole fraction)

1. CNC(=O)c1cc(Oc2ccc(NC(=O)Nc3ccc(Cl)c(C(F)(F)F)c3)cc2)ccn1 = 0.000972

----------
Assay conditions: in acetone, 308.15 K
Value type: solubility (mole fraction)

1. CNC(=O)c1cc(Oc2ccc(NC(=O)Nc3ccc(Cl)c(C(F)(F)F)c3)cc2)ccn1 = 0.00488

----------
Assay conditions: in n-butanol, 303.15 K
Value type: solubility (mole fraction)

1) CNC(=O)c1cc(Oc2ccc(NC(=O)Nc3ccc(Cl)c(C(F)(F)F)c3)cc2)ccn1 = 0.00145

----------
Assay conditions: in isopropanol, 278.15 K
Value type: solubility (mole fraction)

1. CNC(=O)c1cc(Oc2ccc(NC(=O)Nc3ccc(Cl)c(C(F)(F)F)c3)cc2)ccn1 = 0.000573

----------
Assay conditions: in methanol, 283.15 K
Value type: solubility (mole fraction)

1) CNC(=O)c1cc(Oc2ccc(NC(=O)Nc3ccc(Cl)c(C(F)(F)F)c3)cc2)ccn1 = 0.000459

----------
Assay conditions: in n-butanol, 283.15 K
Value type: solubility (mole fraction)

1) CNC(=O)c1cc(Oc2ccc(NC(=O)Nc3ccc(Cl)c(C(F)(F)F)c3)cc2)ccn1 = 0.000919

----------
Assay conditions: in 2-butanone, 273.15 K
Value type: solubility (mole fraction)

1) CNC(=O)c1cc(Oc2ccc(NC(=O)Nc3ccc(Cl)c(C(F)(F)F)c3)cc2)ccn1 = 0.00666

----------
Assay conditions: in ethyl acetate, 288.15 K
Value type: solubility (mole fraction)

1) CNC(=O)c1cc(Oc2ccc(NC(=O)Nc3ccc(Cl)c(C(F)(F)F)c3)cc2)ccn1 = 0.00142

----------
Assay conditions: in ethyl acetate, 283.15 K
Value type: solubility (mole fraction)

1. CNC(=O)c1cc(Oc2ccc(NC(=O)Nc3ccc(Cl)c(C(F)(F)F)c3)cc2)ccn1 = 0.00119

----------
Assay conditions: in toluene, 313.15 K
Value type: solubility (mole fraction)

1) CNC(=O)c1cc(Oc2ccc(NC(=O)Nc3ccc(Cl)c(C(F)(F)F)c3)cc2)ccn1 = 0.00428

Source of measurements: BigSolDB 2.1
